- assay system: T1, human Her2 (ECD)-Fc protein (human, UniProt P04626 23-652)
- T1 construct: extracellular domain; Made in HEK293F cells; also called hHer2 (ECD)-Fc antigen; Her2 (ECD)-Fc antigen; not shown: TEV restriction site at the C-terminal of hHer2 (ECD); IgG1 Fc of the pFUSE-IgG1 vector
- test summary: PE-ELISA, crude extract on antigen-coated plate
quantity name: A405+ (A405)
Just the number please, in A405, no unit attached.

*Q* Recorded A405+ of Nanobody No. 19 (VHH, also called 19; not shown: tags (HA, His) implied by anti-HA detection and nickel column) VHH: QVQLQESGGGSVQAGGSLRLSCTASGFTFDDSDSDMGWYRQAPGNECELVSSISSDGSTYYADSVKGRFTISQDNAKNTVYLQMNSLKPEDTAVYYCAAINSGYELGTCESLDYWGRGTQVTVSS , please.
*A* 1.77

*Q* Recorded A405+ of Nanobody No. 12 (VHH, also called 12; not shown: tags (HA, His) implied by anti-HA detection and nickel column) VHH: QVQLQESGGGSVQAGETLRLSCTASGFTFDDSDMGWYRQAPGNECELVSTISSDGSTYYADSVKGRFTISQDNAKNTVYLQMNSLKPEDTAVYYCAADGHKYELGTCAALDYWGRGTQVTVSS , please.
*A* 2.18

*Q* Recorded A405+ of Nanobody No. 23 (VHH, camel VHH from pMECs phage display vector; also called Antibody no; 23; not shown: tags (HA, His) implied by anti-HA detection and nickel column) VHH: QVQLQESGGGSVQAGGSLKLSCSASGFTFDDTDMGWYRQAPGNECELVSTISSDGTTYYTDSVKGRFTISQDNAKNTVYLQMNSLKPEDTAVYYCAAINSGYELGTCESLDYWGRGTQVTVSS , please.
*A* 1.77

*Q* Recorded A405+ of Nanobody No. 32 (VHH, also called 32; not shown: tags (HA, His) implied by anti-HA detection and nickel column) VHH: QVQLQESGGGSVQAGGSLRLSCTASGFTFDDVDMGWYRQASGNECELVSTISSDGSTYYADSVKGRFTISQDNAKNTVYLQMNSLKPEDTAMYYCAAARYSDYEGMCGYWSQGTQVTVSS , please.
*A* 2.36
